Assay: NCI Yeast Anticancer Drug Screen. Data for the mec2-1 strain (AID 157)
Settings: S. cerevisiae mec2-1 strain, at 50.0 µM, hits give high values
Protocol: Growth inhibition of yeast strains with defined genetic alterations is measured as a screen for potential anti-cancer activity. Selected strains with alterations in DNA damage repair or cell cycle control were exposed to compounds and growth inhibition was measured relative to vehicle treated controls. The strain used in this assay is mec2-1
The panel holds about 79,000 compounds, 15% with a hit somewhere; the sample as a whole holds those more often.
endpoint.name: growth inhibition (%)

[[record]]
molecule = "O=C1CCC2CN3CCc4c([nH]c5ccccc45)C3CC2C1 (configuration not stated)"
endpoint_name = "growth inhibition"
value_observed = 14.4

[[record]]
molecule = "CCOc1cc2c(cc1O)/C(=N/NS(=O)(=O)c1ccc(C)cc1)C[C@@H]1[C@@H]2CC[C@]2(C)[C@@H](O)CC[C@@H]12"
endpoint_name = "growth inhibition"
value_observed = 26.9

[[record]]
molecule = "N#C/C(=C/c1c(O)ccc2ccccc12)C(N)=O"
endpoint_name = "growth inhibition"
value_observed = 18.4

[[record]]
molecule = "CS(=O)(=O)c1ccc(NN)c([N+](=O)[O-])c1 (tested in a mixture with another compound)"
endpoint_name = "growth inhibition"
value_observed = -46.8

[[record]]
molecule = "[O-]c1ccccc1/C=N/C(/N=C/c1ccccc1[O-])c1ccccc1O.[O-]c1ccccc1/C=N/C(/N=C/c1ccccc1[O-])c1ccccc1O.[Zr+4]"
endpoint_name = "growth inhibition"
value_observed = 6.4

[[record]]
molecule = "CC/C(Cl)=N\\OC(=O)Nc1ccc(OC)cc1"
endpoint_name = "growth inhibition"
value_observed = -16.1

[[record]]
molecule = "CC1(C)C2CCC1(CS(=O)(=O)O)C(=O)C2 (configuration not stated)"
endpoint_name = "growth inhibition"
value_observed = -6.6

[[record]]
molecule = "COc1ccc(-c2cc(=O)c3c(O)cccc3o2)cc1"
endpoint_name = "growth inhibition"
value_observed = -37.1

[[record]]
molecule = "COc1ccc2cc1Oc1ccc(cc1)CC1c3cc(OC)c(cc3CCN1C)Oc1c(OC)c(OC)cc3c1C(C2)N(C)CC3 (configuration not stated)"
endpoint_name = "growth inhibition"
value_observed = -15.7

[[record]]
molecule = "O=c1oc(-c2ccc(Cl)cc2)nc2cc(Cl)ccc12"
endpoint_name = "growth inhibition"
value_observed = -14.7

[[record]]
molecule = "O=C(/C(=N/N=C\\c1ccc([N+](=O)[O-])cc1)c1ccccc1)c1ccccc1"
endpoint_name = "growth inhibition"
value_observed = -18.4

[[record]]
molecule = "CC12CC3CC(C(Cl)C(=O)O)(C1)CC(C(Cl)C(=O)O)(C3)C2 (configuration not stated)"
endpoint_name = "growth inhibition"
value_observed = 14.5

[[record]]
molecule = "CC(CN1CCCC1)C(O)(Cc1ccccc1)c1ccccc1 (configuration not stated)"
endpoint_name = "growth inhibition"
value_observed = -2.7

[[record]]
molecule = "CN(Cc1ccccc1)Cc1ccccc1"
endpoint_name = "growth inhibition"
value_observed = -3.9

[[record]]
molecule = "Cc1ccc(S(=O)(=O)Nc2ccccc2C2Nc3ccccc3C(=O)O2)cc1 (configuration not stated)"
endpoint_name = "growth inhibition"
value_observed = -7.4

[[record]]
molecule = "COc1cc(/C=N/N2C(=O)c3ccccc3C2=O)ccc1O"
endpoint_name = "growth inhibition"
value_observed = 8.1

[[record]]
molecule = "NC(=S)NS(=O)(=O)c1ccc(N)cc1"
endpoint_name = "growth inhibition"
value_observed = -38.2

[[record]]
molecule = "CNC(=S)/C(=N\\Nc1nc[nH]c1C(N)=O)C(N)=S"
endpoint_name = "growth inhibition"
value_observed = 7.85

[[record]]
molecule = "COc1cc(/C=N/NC(=O)c2ccncc2)cc(OC)c1OC"
endpoint_name = "growth inhibition"
value_observed = -48.5

[[record]]
molecule = "CCCCCCCCCCCCCCCCOc1ccc(C)cc1"
endpoint_name = "growth inhibition"
value_observed = -29.5

[[record]]
molecule = "CC1=NOC(=O)C1C(C)(C)C1C(=O)ON=C1C (configuration not stated)"
endpoint_name = "growth inhibition"
value_observed = -0.7

[[record]]
molecule = "CCOC(=O)/C=C(\\C)Nc1ccc(F)cc1"
endpoint_name = "growth inhibition"
value_observed = -17.6


Origin of values: PubChem BioAssay (NCI)
